The values you see were collected from PubChem BioAssay AID1963866.

tested on: PDC KRAS tumor spheroids with HUVEC/MSC, viability; assay: Anticancer human tumor 349418-098-R-PDC patient-derived lung adenocarcinoma cell line growth inhibition [KRAS2]; conditions: second compound 0.316 µM; first compound 1 µM; active means viability on the fitted dose curve at most 10% of control; inactive means the rest;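 further: spheroids exposed to compounds for seven days before readout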
Tick one outcome: active, inactive

QUERY: # fetch the recorded call for CC1COCCN1c1cc(-c2ccnn2C)c2ccnc(-c3ccn[nH]3)c2n1 (stereo not given) + CC1OCC2(CCN(c3cnc(Sc4ccnc(N)c4Cl)c(N)n3)CC2)C1N here
RESULT: active

QUERY: Recorded call for O=C(c1cc(Cc2n[nH]c(=O)c3ccccc23)ccc1F)N1CCN(C(=O)C2CC2)CC1 + COc1cc2nc(C)nc(NC(C)c3cc(N)cc(C(F)(F)F)c3)c2cc1OC1CCOC1 ?
RESULT: inactive

QUERY: Which outcome was assigned to CC(=O)OC12COC1CC(O)C1(C)C(=O)C(O)C3=C(C)C(OC(=O)C(O)C(NC(=O)OC(C)(C)C)c4ccccc4)CC(O)(C(OC(=O)c4ccccc4)C21)C3(C)C (stereo not given) + C=CC(=O)N1CCN(c2nc(=O)n(-c3c(C)ccnc3C(C)C)c3nc(-c4c(O)cccc4F)c(F)cc23)C(C)C1 in this test?
RESULT: inactive

QUERY: Hi, sorry to bother you, what did the test record for CCN1CCN(Cc2ccc(Nc3ncc(F)c(-c4cc(F)c5nc(C)n(C(C)C)c5c4)n3)nc2)CC1 + CNCc1ccccc1-c1csc(C(C)Nc2nc(C)nc3cc(OC)c(OC)cc23)c1 ?
RESULT: active

QUERY: Query: recorded result category for CCN1CCN(Cc2ccc(Nc3ncc(F)c(-c4cc(F)c5nc(C)n(C(C)C)c5c4)n3)nc2)CC1 + C=CC(=O)N1CCN(c2nc(OCC3CCCN3C)nc3c2CCN(c2cccc4cccc(C)c24)C3)CC1CC#N in this test
RESULT: active

QUERY: Outcome logged for CC1(C)CCC(CN2CCN(c3ccc(C(=O)NS(=O)(=O)c4ccc(NCC5CCOCC5)c([N+](=O)[O-])c4)c(Oc4cnc5[nH]ccc5c4)c3)CC2)=C(c2ccc(Cl)cc2)C1 + C=CC(=O)N1CCN(c2nc(OCC3CCCN3C)nc3c2CCN(c2cccc4cccc(C)c24)C3)CC1CC#N in this assay:
RESULT: inactive

QUERY: Short answer needed: outcome of this test for Cn1nccc1Nc1nccc(-c2cc3c(s2)C(C)(C)N(CCN2CCOCC2)C3=O)n1 + COc1cc2nc(C)nc(NC(C)c3cc(N)cc(C(F)(F)F)c3)c2cc1OC1CCOC1 ?
RESULT: active

QUERY: So what was the verdict on CC(=O)OC12COC1CC(O)C1(C)C(=O)C(O)C3=C(C)C(OC(=O)C(O)C(NC(=O)OC(C)(C)C)c4ccccc4)CC(O)(C(OC(=O)c4ccccc4)C21)C3(C)C (stereo not given) + COc1cc2nc(C)nc(NC(C)c3cc(N)cc(C(F)(F)F)c3)c2cc1OC1CCOC1 in this test?
RESULT: inactive

QUERY: Assay result, entry CC1OCC2(CCN(c3cnc(Sc4ccnc(N)c4Cl)c(N)n3)CC2)C1N (stereo not given) + C=CC(=O)N1CCN(c2nc(OCC3CCCN3C)nc3c2CCN(c2cccc4cccc(C)c24)C3)CC1CC#N — outcome?
RESULT: inactive

QUERY: So what was the verdict on COc1cc2nccc(Oc3ccc(NC(=O)C4(C(=O)Nc5ccc(F)cc5)CC4)cc3)c2cc1OC + COc1cc2nc(C)nc(NC(C)c3cc(N)cc(C(F)(F)F)c3)c2cc1OC1CCOC1 in this test?
RESULT: inactive
